- System: S. aureus ATCC 10390
- PROCEDURE TEXT: Estimated MIC, solution-phase microdilution absorbance assay with crude macroarray spot stock solutions
- Assay type: cell-based, Staphylococcus aureus
- MEASUREMENT SETUP: Staphylococcus aureus, ATCC10390, 12 h; Table 2; serial dilution of stock solutions obtained by SPOT-synthesis; read-out: estimated MIC range
OUTCOME MEASURE: MIC

[
  {
    "MOLECULE": "O=C(/C=C/c1ccc(Cl)cc1Cl)c1ccc(O)cc1 [Compound 4At, 2,4-dichloro-4′-hydroxychalcone]",
    "OUTCOME MEASURE": "MIC",
    "REPORTED MEASUREMENT": "25 to 50 µM"
  },
  {
    "MOLECULE": "Cc1nc(-c2cccc(O)c2)cc(-c2ccc(Cl)cc2Cl)c1C#N [Compound 6Bt]",
    "OUTCOME MEASURE": "MIC",
    "REPORTED MEASUREMENT": "6.25 to 12.5 µM"
  },
  {
    "MOLECULE": "O=C(/C=C/c1cccc(Cl)c1Cl)c1cccc(O)c1 [Compound 4Bl, 2,3-dichloro-3′-hydroxychalcone]",
    "OUTCOME MEASURE": "MIC",
    "REPORTED MEASUREMENT": "12.5 to 25 µM"
  },
  {
    "MOLECULE": "O=C(/C=C/c1cc(C(F)(F)F)cc(C(F)(F)F)c1)c1cccc(O)c1 [Compound 4Bv]",
    "OUTCOME MEASURE": "MIC",
    "REPORTED MEASUREMENT": "6.25 to 12.5 µM"
  },
  {
    "MOLECULE": "Cc1nc(-c2ccc(O)cc2)cc(-c2cccc(Cl)c2Cl)c1C#N [Compound 6Al]",
    "OUTCOME MEASURE": "MIC",
    "REPORTED MEASUREMENT": "12.5 to 25 µM"
  },
  {
    "MOLECULE": "O=C(/C=C/c1c(Cl)ccc(Cl)c1Cl)c1cccc(O)c1 [Compound 4Bo, 3′-hydroxy-2,3,6-trichlorochalcone]",
    "OUTCOME MEASURE": "MIC",
    "REPORTED MEASUREMENT": "6.25 to 12.5 µM"
  },
  {
    "MOLECULE": "O=C(/C=C/c1cccc(Br)c1)c1cccc(O)c1 [Compound 4Be, 3-bromo-3′-hydroxychalcone]",
    "OUTCOME MEASURE": "MIC",
    "REPORTED MEASUREMENT": "25 to 50 µM"
  },
  {
    "MOLECULE": "Cc1nc(-c2ccc(O)cc2)cc(-c2c(Cl)ccc(Cl)c2Cl)c1C#N [Compound 6Ao]",
    "OUTCOME MEASURE": "MIC",
    "REPORTED MEASUREMENT": "6.25 to 12.5 µM"
  },
  {
    "MOLECULE": "COc1cc(C(=O)/C=C/c2ccc(Br)cc2)ccc1O [Compound 4Cf, 4-bromo-4′-hydroxy-3′-methoxy-chalcone]",
    "OUTCOME MEASURE": "MIC",
    "REPORTED MEASUREMENT": "> 50 µM"
  }
]

###

This document collects MIC values reported for K. pneumoniae ATCC 4352.
OUTCOME MEASURE: MIC

[
  {
    "COMPOUND": "O=C(/C=C/c1cccc(Br)c1)c1cccc(O)c1 [Compound 4Be, 3-bromo-3′-hydroxychalcone]",
    "REPORTED MEASUREMENT": "40 µM"
  },
  {
    "COMPOUND": "O=C(/C=C/c1c(Cl)ccc(Cl)c1Cl)c1cccc(O)c1 [Compound 4Bo, 3′-hydroxy-2,3,6-trichlorochalcone]",
    "REPORTED MEASUREMENT": "> 250 µM"
  },
  {
    "COMPOUND": "O=C(/C=C/c1cccc(Cl)c1Cl)c1cccc(O)c1 [Compound 4Bl, 2,3-dichloro-3′-hydroxychalcone]",
    "REPORTED MEASUREMENT": "> 250 µM"
  },
  {
    "COMPOUND": "O=C(/C=C/c1ccc(Cl)cc1Cl)c1ccc(O)cc1 [Compound 4At, 2,4-dichloro-4′-hydroxychalcone]",
    "REPORTED MEASUREMENT": "> 250 µM"
  }
]
